system.name: PRMT5-MTA (Homo sapiens)
Sequence (O14744 whole entry): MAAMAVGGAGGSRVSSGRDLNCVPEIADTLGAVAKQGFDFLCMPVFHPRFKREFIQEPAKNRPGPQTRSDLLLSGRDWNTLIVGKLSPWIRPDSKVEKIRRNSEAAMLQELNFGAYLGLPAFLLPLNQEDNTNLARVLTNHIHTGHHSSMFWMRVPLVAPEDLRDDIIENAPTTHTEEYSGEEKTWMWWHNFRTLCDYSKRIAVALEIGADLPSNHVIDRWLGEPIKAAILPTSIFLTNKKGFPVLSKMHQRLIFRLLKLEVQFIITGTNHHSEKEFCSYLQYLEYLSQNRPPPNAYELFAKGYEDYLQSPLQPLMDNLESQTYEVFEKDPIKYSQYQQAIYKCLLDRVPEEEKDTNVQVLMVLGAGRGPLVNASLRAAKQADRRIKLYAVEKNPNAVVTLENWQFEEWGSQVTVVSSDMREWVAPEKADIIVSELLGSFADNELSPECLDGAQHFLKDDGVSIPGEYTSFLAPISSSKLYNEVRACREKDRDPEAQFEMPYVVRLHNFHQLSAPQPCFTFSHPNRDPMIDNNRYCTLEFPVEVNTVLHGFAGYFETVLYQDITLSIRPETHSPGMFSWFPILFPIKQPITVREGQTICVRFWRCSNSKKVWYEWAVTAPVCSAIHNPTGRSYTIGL
Sequence (Q9BQA1 whole entry partner): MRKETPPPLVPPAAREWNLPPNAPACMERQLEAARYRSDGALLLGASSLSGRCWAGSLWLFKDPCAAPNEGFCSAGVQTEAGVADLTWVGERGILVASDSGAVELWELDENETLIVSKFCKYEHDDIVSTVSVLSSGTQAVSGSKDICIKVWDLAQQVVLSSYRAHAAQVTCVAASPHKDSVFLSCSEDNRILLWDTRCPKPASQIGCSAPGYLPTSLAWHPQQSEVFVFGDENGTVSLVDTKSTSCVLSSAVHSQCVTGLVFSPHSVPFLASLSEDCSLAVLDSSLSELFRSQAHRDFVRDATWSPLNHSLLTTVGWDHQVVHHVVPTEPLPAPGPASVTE
assay.protocol: Enzymatic inhibitory activity against PRMT5-MTA (AlphaScreen)
Assay type: biochemical
measurement.context: read-out: IC50
Cut-off 4 nM on IC50: below means rule met, at or above means rule not met.

A selection of reference data follows.
Exercise: Hello, is IC50 of the following compound strictly smaller than 4 nM? CN(c1ccccc1)N(Cc1ccc(C(F)(F)F)cn1)C(=O)c1ccc2nc(N)c3cnn(C)c3c2c1 [Example 15]
Solution: rule met

Exercise: For Cn1ncc2c(N)nc3cc(Cl)c(C(=O)N4CC(C(F)(F)F)CN4c4cccc(F)n4)cc3c21 (centres unmarked) then?
Solution: rule not met

Exercise: For Cc1cc2nc(N)c3cnn(C)c3c2cc1C(=O)N1CCCN1c1ncc(-c2cccnc2)cc1F then?
Solution: rule not met

Exercise: For Cc1cc2cc(C(=O)N(Cc3ccc(-c4cnc(N5CCN(C)CC5)nc4)cn3)N(C)c3ncccn3)ccc2nc1N then?
Solution: rule met

Exercise: For Cn1ncc2c(N)nc3cc(C(F)(F)F)c(C(=O)N4CCCN4c4ccc(C(F)(F)F)cn4)cc3c21 then?
Solution: rule met

Others:
Exercise: Hello, is IC50 of the following compound strictly smaller than 4 nM? Cc1cc2cc(C(=O)N(Cc3cnc(Br)cn3)N(C)c3ncccn3)ccc2nc1N
Solution: rule not met

Exercise: For Cc1cc2cc(C(=O)N(Cc3ncc(-c4cccnc4)cc3F)N(C)c3ncccn3)ccc2nc1N then?
Solution: rule met

Exercise: For Cc1cc2cc(C(=O)N(Cc3ccc(-c4ccc(C(F)(F)F)nc4)cn3)N(C)c3ncccn3)ccc2nc1N then?
Solution: rule met

Exercise: For Cc1cc2nc(N)c3cnn(C)c3c2cc1C(=O)N1CC(C)CN1c1ncc(-c2cncs2)cc1F (centres unmarked) then?
Solution: rule met

Exercise: For CCN(C(=O)c1cc2c(cc1F)nc(N)c1cnn(C)c12)N(C)c1ccc(F)cn1 then?
Solution: rule not met

###

I'd be grateful if you could share measured pIC50 for these entries.
system.name: PRMT5-MTA (Homo sapiens)
assay.protocol: Enzymatic inhibitory activity against PRMT5-MTA (AlphaScreen)
Format: biochemical
measurement.context: read-out: IC50
Numbers only, as −log10 of the molar value.

Exercise: # get_value(readout='pIC50', item= Cc1cc2nc(N)c3cnn(C)c3c2cc1C(=O)N1CC(C)CN1c1ncccc1Br (stereo not drawn) )
Solution: 8.24

Exercise: For C=Cc1cccnc1N(C)N(Cc1ccc(C(F)(F)F)cn1)C(=O)c1ccc2nc(N)c(C)cc2c1 then?
Solution: 8.44

Exercise: For Cc1cc2nc(N)c3cnn(C)c3c2cc1C(=O)N1CC(C)CN1c1ncc(-c2scnc2C)cc1F (stereo not drawn) then?
Solution: 8.29

Exercise: For Cc1cc2nc(N)c3cnn(C)c3c2cc1C(=O)N1CC(C)CN1c1cccc(C2CC2)n1 (stereo not drawn) then?
Solution: 7.91

Exercise: For Cc1cc2cc(C(=O)N(Cc3ccc(-c4nncs4)cn3)N(c3ncccn3)C3CC3)ccc2nc1N then?
Solution: 8.43

Exercise: For Cc1cc2cc(C(=O)N(Cc3ccc(C(F)(F)F)cn3)N(C)c3ncc(C(F)(F)F)cn3)ccc2nc1N then?
Solution: 8.96

Exercise: For Cc1cc2cc(C(=O)N(Cc3ccc(C(C)F)cn3)N(C)c3ncccn3)ccc2nc1N (stereo not drawn) then?
Solution: 8.85

Exercise: For Cc1cc2cc(C(=O)N(Cc3ccc(C(F)(F)F)cn3)N(C)c3ncc4ccccc4n3)ccc2nc1N then?
Solution: 8.92

Exercise: For Cc1cc2cc(C(=O)N(Cc3ccc(C(F)(F)F)cn3)N(C)c3nccc4ccsc34)ccc2nc1N then?
Solution: 8.43

Exercise: For Cc1cc2nc(N)c3cnn(C)c3c2cc1C(=O)N1C(C)CCN1c1ncc(Br)cc1F (stereo not drawn) then?
Solution: 8.13

List the reported pIC50 of each compound below.
1. Cc1cc2cc(C(=O)N(Cc3ccc(C(F)(F)F)cn3)N(c3ncccn3)C3CCC3)ccc2nc1N
2. Cc1cc2nc(N)c3cnn(C)c3c2cc1C(=O)N1CC(C)CN1c1cccc(Br)n1 (stereo not drawn)
3. Cc1cc2cc(C(=O)N(Cc3ccc(C(F)(F)F)cn3)N(C)c3ncccc3Cl)ccc2nc1N

Solution:
1. 8.35
2. 8.18
3. 8.41

List the reported pIC50 of each compound below.
1. Cc1cc2nc(N)c3cnn(C)c3c2cc1C(=O)N1CC(F)(F)CN1c1ncccc1F
2. Cc1cc2cc(C(=O)N(Cc3ccc(C(F)(F)F)cn3)N(C)c3ncc4ccn(C)c4n3)ccc2nc1N
3. C=Cc1ccc(CN(C(=O)c2ccc3nc(N)c(C)cc3c2)N(C)c2ncccn2)nc1
4. Cc1cc2nc(N)c3cnn(C)c3c2cc1C(=O)N1CCC(C)N1c1ncc(Br)cc1F (stereo not drawn)
5. Cc1cc2cc(C(=O)N(Cc3ccc(Br)cn3)N(C)c3ncccc3F)ccc2nc1N
6. [2H]C([2H])([2H])c1cc2cc(C(=O)N(Cc3ccc(C(F)(F)F)cn3)N(c3ncccn3)C3CC3)ccc2nc1N

Solution:
[8.00, 8.89, 8.57, 8.07, 8.43, 8.33]
